Exercise: state measured MIC E. coli ATCC 25922 for each of the compounds provided.
System: E. coli ATCC 25922
Conditions: ATCC 25922
Positions of bridges follow the written chain, without caps; N, C: chain ends. Non-standard residues stand in square brackets, D forms with d. Residues, ends and D or L forms follow the SMILES beside them. *: point of attachment. Isonicotinoyl(2-Ph) = O=C(c1ccnc(-c2ccccc2)c1)*; Decanoyl(3R-OH) = CCCCCCC[C@@H](O)CC(=O)*; dBip = N[C@H](Cc1ccc(-c2ccccc2)cc1)C(=O)O; dPhe(4-NH2) = Nc1ccc(C[C@@H](N)C(=O)O)cc1; X3 = CCCCCCCCCCCC(O)CC(=O)*; X9 = CCCCCC1CCC(C(=O)*)CC1; dDab = NCC[C@@H](N)C(=O)O; dDap = NC[C@@H](N)C(=O)O; Dab = NCC[C@H](N)C(=O)O; Dap = NC[C@H](N)C(=O)O
Quick reminder: number only, in µg/mL, skip the unit.

Input CCCCCCC[C@@H](O)CC(=O)N[C@H](CCN)C(=O)N[C@H]1CCNC(=O)[C@H]([C@@H](C)O)NC(=O)[C@H](CCN)NC(=O)[C@H](CCN)NC(=O)[C@H](CC(C)C)NC(=O)[C@@H](Cc2ccccc2)NC(=O)[C@H](CCN)NC1=O [compound 5387] ({Decanoyl(3R-OH)}-[dDab][Dab][Dab][dF]L[Dab][Dab]T; lactam 2-C) . Output MIC E. coli ATCC 25922: 2

Kindly note the recorded MIC E. coli ATCC 25922 for CC(C)C[C@@H]1NC(=O)[C@H](CCN)NC(=O)[C@H](CCN)NC(=O)[C@H](CC(C)C)NC(=O)[C@@H](Cc2ccccc2)NC(=O)[C@H](CCN)NC(=O)[C@@H](NC(=O)[C@@H](CCN)NC(=O)c2ccnc(-c3ccccc3)c2)CCNC1=O [compound 6525] ({Isonicotinoyl(2-Ph)}-[dDab][Dab][Dab][dF]L[Dab][Dab]L; lactam 2-C) , which is 4

Documented MIC E. coli ATCC 25922 of CCCCCC1CCC(C(=O)N[C@H](CCN)C(=O)N[C@H]2CCNC(=O)[C@H]([C@@H](C)O)NC(=O)[C@H](CCN)NC(=O)[C@H](CCN)NC(=O)[C@H](CC(C)C)NC(=O)[C@@H](Cc3ccccc3)NC(=O)[C@H](CCN)NC2=O)CC1 (stereo partly drawn) [compound 6404] (X9-[dDab][Dab][Dab][dF]L[Dab][Dab]T; lactam 2-C) : 1

Data point: CCCCCCC[C@@H](O)CC(=O)N[C@H](CCN)C(=O)N[C@H]1CCNC(=O)[C@H](CC(C)C)NC(=O)[C@H](CCN)NC(=O)[C@H](CCN)NC(=O)[C@H](CC(C)C)NC(=O)[C@H](Cc2ccccc2)NC(=O)[C@H](CCN)NC1=O [compound 5002] ({Decanoyl(3R-OH)}-[dDab][Dab][Dab]FL[Dab][Dab]L; lactam 2-C) ; MIC E. coli ATCC 25922 = 32

Lab note: CC(C)C[C@@H]1NC(=O)[C@H](CCN)NC(=O)[C@H](CCN)NC(=O)[C@H](Cc2ccccc2)NC(=O)[C@@H](CC(C)C)NC(=O)[C@H](CCN)NC(=O)[C@@H](NC(=O)[C@@H](CCN)NC(=O)c2ccnc(-c3ccccc3)c2)CCNC1=O [compound 6517] ({Isonicotinoyl(2-Ph)}-[dDab][Dab][Dab][dL]F[Dab][Dab]L; lactam 2-C) gave MIC E. coli ATCC 25922 of 8

Measured MIC E. coli ATCC 25922 of CCCCCCC[C@@H](O)CC(=O)N[C@H](CCN)C(=O)N[C@H]1CCNC(=O)[C@H](CC(C)C)NC(=O)[C@H](CCN)NC(=O)[C@H](CCN)NC(=O)[C@H](CC(C)C)NC(=O)[C@@H](Cc2ccc(O)cc2)NC(=O)[C@H](CCN)NC1=O [compound 5008] ({Decanoyl(3R-OH)}-[dDab][Dab][Dab][dY]L[Dab][Dab]L; lactam 2-C) : 8

Lookup result for CCCCCCCCCCCC(O)CC(=O)N[C@H](CCN)C(=O)N[C@H]1CCNC(=O)[C@H](CC(C)C)NC(=O)[C@H](CCN)NC(=O)[C@H](CCN)NC(=O)[C@H](CC(C)C)NC(=O)[C@@H](Cc2ccccc2)NC(=O)[C@H](CCN)NC1=O (stereo partly drawn) [compound 5015] (X3-[dDab][Dab][Dab][dF]L[Dab][Dab]L; lactam 2-C) ; measured MIC E. coli ATCC 25922: 4

CCCCCCC[C@@H](O)CC(=O)N[C@H](CN)C(=O)N[C@H]1CCNC(=O)[C@H](CC(C)C)NC(=O)[C@H](CCN)NC(=O)[C@H](CCN)NC(=O)[C@H](Cc2ccccc2)NC(=O)[C@@H](CC(C)C)NC(=O)[C@H](CCN)NC1=O [compound 6427] ({Decanoyl(3R-OH)}-[dDap][Dab][Dab][dL]F[Dab][Dab]L; lactam 2-C) yielded MIC E. coli ATCC 25922 of 8

Briefly, MIC E. coli ATCC 25922 measured for CCCCCCC[C@@H](O)CC(=O)N[C@H](CCN)C(=O)N[C@H]1CCNC(=O)[C@H](CC(C)C)NC(=O)[C@H](CN)NC(=O)[C@H](CCN)NC(=O)[C@H](CC(C)C)NC(=O)[C@@H](Cc2ccc(-c3ccccc3)cc2)NC(=O)[C@H](CCN)NC1=O [compound 5383] ({Decanoyl(3R-OH)}-[dDab][Dab][Dab][dBip]L[Dab][Dap]L; lactam 2-C) : 4

MIC E. coli ATCC 25922 measured on CCCCCCC[C@@H](O)CC(=O)N[C@H](Cc1ccc(N)cc1)C(=O)N[C@H]1CCNC(=O)[C@H](CC(C)C)NC(=O)[C@H](CCN)NC(=O)[C@H](CCN)NC(=O)[C@H](Cc2ccccc2)NC(=O)[C@@H](CC(C)C)NC(=O)[C@H](CCN)NC1=O [compound 6429] ({Decanoyl(3R-OH)}-[dPhe(4-NH2)][Dab][Dab][dL]F[Dab][Dab]L; lactam 2-C) = 16
